B1: TPR 5TU (parent)
chain: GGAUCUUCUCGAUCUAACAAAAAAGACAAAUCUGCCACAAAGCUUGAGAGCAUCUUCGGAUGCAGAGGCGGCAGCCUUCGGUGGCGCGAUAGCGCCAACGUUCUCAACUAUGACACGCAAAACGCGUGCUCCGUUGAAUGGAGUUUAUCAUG

variants of: B1; test: polymerase ribozyme fitness, log enrichment relative to wild type (log ratio); higher = more active; in vitro selection for triplet polymerase activity
Variants at the floor of the assay were thinned out.
parameter-measured: polymerase ribozyme fitness (log ratio)

Recorded results for 3 variants are shown here.
variant: A49C G71A
polymerase ribozyme fitness (log ratio): ≤ -4.2
//
variant: U4C G25U U61G G86U C93U G133C
polymerase ribozyme fitness (log ratio): ≤ -4.2
//
variant: A21C C43A G50C G74C C76A C87A A91G A119G
polymerase ribozyme fitness (log ratio): ≤ -4.2

Parameter requested: polymerase ribozyme fitness (log ratio). Apply to each item below.
1. A39U A52G C79G G84C C108U
2. C57G G70A C87U C123A
3. A20G A37U U111G
4. U6C C10A U13A C35G C36G A37G G81U G83C

OUTPUT:
1. ≤ -4.2
2. ≤ -4.2
3. ≤ -4.2
4. ≤ -4.2

Parameter requested: polymerase ribozyme fitness (log ratio). Apply to each item below.
1. C38G A66G U77G G83U A107U G128C A137U
2. A28U A29U G74C C79G A89C C118A A120U A122G C125G
3. U13G U111G
4. A47U C54A C75G G140A
5. A3U C38U C96U G126U G143A

OUTPUT:
1. ≤ -4.2
2. ≤ -4.2
3. ≤ -4.2
4. ≤ -4.2
5. ≤ -4.2

Parameter requested: polymerase ribozyme fitness (log ratio). Apply to each item below.
1. U9G U61A C75U C85U G124C
2. A29U A89U G94A C116G G141A
3. A12C G25U U55A U56C G83C
4. A24G A91U

OUTPUT:
["≤ -4.2", "≤ -4.2", "≤ -4.2", "≤ -4.2"]

Parameter requested: polymerase ribozyme fitness (log ratio). Apply to each item below.
1. A29G C69U
2. A26C C32G G34C U44A A107G C131U U139C U145C
3. A29G U56A U77C
4. A49G G50A U56A C95U U101C U111G
5. U44A G68U G92U A98G C99G
6. C8U C79A G92A C105A
7. A21U A23U A29C C35G G48A
8. G80C G88C G92A G136U

OUTPUT:
1. ≤ -4.2
2. ≤ -4.2
3. ≤ -4.2
4. ≤ -4.2
5. ≤ -4.2
6. ≤ -4.2
7. ≤ -4.2
8. ≤ -4.2

Parameter requested: polymerase ribozyme fitness (log ratio). Apply to each item below.
1. A21U A24U A52G G71U U90C C123U G126U U144A A147C U151A
2. U4A C10U A26U U31G A39G C57A C85A U90G A113C

OUTPUT:
["≤ -4.2", "≤ -4.2"]
